targetSystem: T1, human DLL3 (ACRO, DLL3-H52H4) (human, UniProt Q9NYJ7 27-492)
T1 construct: Bought
T1 sequence: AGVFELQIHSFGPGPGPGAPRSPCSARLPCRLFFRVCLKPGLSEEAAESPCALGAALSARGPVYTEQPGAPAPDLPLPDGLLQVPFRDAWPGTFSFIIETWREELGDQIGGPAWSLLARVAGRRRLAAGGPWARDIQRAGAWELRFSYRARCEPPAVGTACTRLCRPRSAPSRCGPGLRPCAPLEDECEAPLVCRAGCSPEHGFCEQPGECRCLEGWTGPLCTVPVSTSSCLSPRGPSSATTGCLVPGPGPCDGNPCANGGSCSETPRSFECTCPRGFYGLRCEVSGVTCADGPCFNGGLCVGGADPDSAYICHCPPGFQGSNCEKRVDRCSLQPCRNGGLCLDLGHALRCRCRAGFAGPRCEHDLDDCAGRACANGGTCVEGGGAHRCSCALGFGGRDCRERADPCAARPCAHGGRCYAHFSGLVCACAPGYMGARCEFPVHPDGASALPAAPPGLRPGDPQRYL
testDetails: SPR Biacore 8K, Ab captured on Protein A
measure: koff
Express the reported value numerically, then name its unit.

Prompt: Look up and state reported koff for hu6L3H3 (antibody, human IgG1, kappa, V domains shown) VH: EVQLVQSGAEVKKPGASVKVSCKASGYTFTDYYMNWVRQAPGQRLEWIGIINPYSGVTIYNHKFKGRATLTVDKSANTAYMELSSLRSEDTAVYYCARQDSLLDYAMDYWGQGTTVTVSS VL: DIQMTQSPSSLSASVGDRVTITCHASQGISGNMGWLQQKPGKSFKGLIYHGANLEDGVPSRFSGSGSGADYTLTISSLQPEDFATYYCVQYAQFPYTFGGGTKVEIKR
Response: 0.00135 s⁻¹

Prompt: Look up and state reported koff for hu30L3H4 (antibody, human IgG1, kappa, V domains shown) VH: EVRLVQSGAEVKKPGASVKVSCKASGYTFTDYYMNWVRQAPGQSLEWMGIINPYSGDTSYNQKFRGRVTLTVDKSASTAYMELSSLRSEDTAVYYCARYHYGPHLEGYFDVWGQGTTVTVSS VL: DIVMTQSPKSLAVSLGERATINCKASENVGYVSWYQQKPGQSPKLLIYGASNRYTGVPDRFSGSGSATDFTLTISSLQAEDVAVYHCGQSYSYPLTFGQGTKLEIKR
Response: 0.000956 s⁻¹

Prompt: Look up and state reported koff for hu6L4H6 (antibody, human IgG1, kappa, V domains shown) VH: EVQLVQSGSELKKPGASVKVSCKASGYTFTDYYMNWVRQAPGQGLEWMGIINPYSGVTIYNHKFKGRFVLSVDKSSNTAYLQISSLKAEDTAVYYCARQDSLLDYAMDYWGQGTTVTVSS VL: DIQMTQSPSSLSASVGDRVTITCHASQGISGNMGWLQQKPGKAPKGLIYHGANLEDGVPSRFSGSGSGADYTLTISSLQPEDFADYYCVQYAQFPYTFGGGTKVEIKR
Response: 0.000811 s⁻¹

Data origin, for the record: patent US20250376519A1
